# Tested on: NCI-H522
# experiment summary: NCI-60 one-dose SRB screening
# Assay type: cell-based
# particulars: Homo sapiens, NCI-H522, Non-Small Cell Lung Cancer, 10 µM one dose, 48 h, read-out: growth percentage
Reported activity at 10 µM values follow for various compounds

Solved cases below.
compound: Cc1nc(Nc2ccc(OCc3c(-c4ccccc4)no[n+]3[O-])cc2)c2cnn(-c3ccccc3)c2n1
reported measurement: 96.3%

compound: Cc1nc(Nc2ccc(OCc3c(-c4ccccc4)no[n+]3[O-])cc2)c2c(C)nn(-c3ccccc3)c2n1
reported measurement: 105%

compound: Cc1nn(-c2ccccc2)c2ncnc(Nc3ccc(OCc4c(-c5ccccc5)no[n+]4[O-])cc3)c12
reported measurement: 84.8%

compound: Cc1nn(-c2ccccc2)c2nc(CNc3ccc(NCc4c(-c5ccccc5)no[n+]4[O-])cc3)[nH]c(=O)c12 [14b]
reported measurement: 80.9%

compound: Nc1ccc(NCc2c(-c3ccccc3)no[n+]2[O-])cc1
reported measurement: 93.5%

The reported activity at 10 µM of the compound Cc1nn(-c2ccc(Br)cc2)c2nc(C(F)(F)F)nc(Nc3ccc(NCc4c(-c5ccccc5)no[n+]4[O-])cc3)c12 [12c] was 83.5%

// field: activity at 10 µM; key: O=c1[nH]c(CNc2ccc(NCc3c(-c4ccccc4)no[n+]3[O-])cc2)nc2c1cnn2-c1ccccc1 [14a] ; value = 60.8%

"Cc1nn(-c2ccc(Br)cc2)c2ncnc(Nc3ccc(OCc4c(-c5ccccc5)no[n+]4[O-])cc3)c12" has a reported activity at 10 µM of 92%

###

# Test system: OVCAR-5
# experiment summary: NCI-60 one-dose SRB screening
# Assay type: cell-based
# particulars: Homo sapiens, OVCAR-5, Ovarian Cancer, 10 µM one dose, 48 h, read-out: growth percentage
measured property: activity at 10 µM (%)
Output spec: scalar in %, unitless text.

Recorded activity at 10 µM, per entry:
molecule: Cc1nn(-c2ccccc2)c2nc(C(F)(F)F)nc(Nc3ccc(NCc4c(-c5ccccc5)no[n+]4[O-])cc3)c12 [12a]
measured target: OVCAR-5
reported measurement: 93.7

molecule: O=c1[nH]c(CNc2ccc(NCc3c(-c4ccccc4)no[n+]3[O-])cc2)nc2c1cnn2-c1ccccc1 [14a]
measured target: OVCAR-5
reported measurement: 64.3

molecule: Cc1nc(Nc2ccc(OCc3c(-c4ccccc4)no[n+]3[O-])cc2)c2cnn(-c3ccccc3)c2n1
measured target: OVCAR-5
reported measurement: 106

molecule: Cc1nn(-c2ccccc2)c2ncnc(Nc3ccc(OCc4c(-c5ccccc5)no[n+]4[O-])cc3)c12
measured target: OVCAR-5
reported measurement: 104

Now for the molecule whose activity at 10 µM we want.
The reported OVCAR-5 activity at 10 µM of Cc1nn(-c2ccccc2)c2nc(CCl)[nH]c(=O)c12 [13b] is 110

###

# System: SW-620
# experiment summary: NCI-60 one-dose SRB screening
# Assay type: cell-based
# particulars: Homo sapiens, SW-620, Colon Cancer, 10 µM one dose, 48 h, read-out: growth percentage
Property: activity at 10 µM; scope: individual compounds
Numbers only; they are read as %.

Consider the reported activity at 10 µM for these compounds:
compound: Cc1nn(-c2ccc(Br)cc2)c2nc(C(F)(F)F)nc(Nc3ccc(NCc4c(-c5ccccc5)no[n+]4[O-])cc3)c12 [12c]
activity at 10 µM / %: 79.7
--
compound: [O-][n+]1onc(-c2ccccc2)c1COc1ccc(Nc2ncnc3c2cnn3-c2ccc(Br)cc2)cc1 [6e]
activity at 10 µM / %: 115
--
compound: Cc1nc(Nc2ccc(OCc3c(-c4ccccc4)no[n+]3[O-])cc2)c2c(C)nn(-c3ccc(Br)cc3)c2n1 [6h]
activity at 10 µM / %: 101

Noted for Cc1nn(-c2ccccc2)c2nc(CCl)[nH]c(=O)c12 [13b] : its activity at 10 µM reads 85.1

For reference, reported activity at 10 µM for Nc1ccc(NCc2c(-c3ccccc3)no[n+]2[O-])cc1 [compound 11] stands at 115

activity at 10 µM reported for this compound O=c1[nH]c(CCl)nc2c1cnn2-c1ccccc1 [13a] : 102

Briefly, activity at 10 µM measured for Cc1nc(Nc2ccc(OCc3c(-c4ccccc4)no[n+]3[O-])cc2)c2cnn(-c3ccccc3)c2n1 [6b] : 120

Record summary for Cc1nn(-c2ccccc2)c2nc(C(F)(F)F)nc(Nc3ccc(NCc4c(-c5ccccc5)no[n+]4[O-])cc3)c12 [12a] : reported activity at 10 µM = 86
